Test system: HOP-92
experiment.description: NCI tumour cell line growth inhibition, 48 h
Activity calls are given as the source filed them. Cut-off read from the data, not from the text of the source: active = GI50 up to about 1.1 µM and inactive = higher.
Lab note: assign the record to one of active, inactive

Completed entries (count: 2):
O=[PH]1c2ccccc2Nc2ccccc21	inactive
CSCSSC	inactive

# lookup: test call for COc1ccc(C(=O)C(Br)C(Br)C(=O)O)cc1 (configuration not stated)
inactive

# lookup: test call for Cc1cc(S(=O)(=O)O)c(NC(=O)C(=O)Cc2cc(=O)oc3cc(O)ccc23)cc1Cl
inactive

# lookup: test call for Oc1ccc(Cn2c(-c3ccc(O)c(O)c3)nc3ccccc32)cc1O
inactive

# lookup: test call for COc1ccc(/C=C/c2cc(OC)c(OC)c(OC)c2)cc1O[Si](C)(C)C(C)(C)C
inactive

###

Catalogue of GI50 readings, one per entry.
Tested on: SR
experiment.description: NCI tumour cell line growth inhibition, 48 h
The source made the active and inactive calls. Cut-off read from the data, not from the text of the source: active = GI50 up to about 1.1 µM and inactive = higher.

NC12CC3CC(C1)CC(C(=O)O)(C3)C2	> 100 µM (inactive)
NNC(=O)Nc1nc2ccc(NN)cc2[nH]1	19.5 µM (inactive)
COc1cccc2c1C(=O)c1c(O)c3c(c(O)c1C2=O)C[C@@](O)(/C(C)=N/NC(=O)c1ccccc1)C[C@@H]3OC1CC(N)C(O)C(C)O1 (stereo not given in full)	0.0199 µM (active)
COC(=O)/C=C\[C@@H]1[C@H](C)N1S(=O)(=O)c1ccc(C)cc1 (stereo not given in full)	> 100 µM (inactive)

Next up:
Lab note: CCCCCN(CCCCC)CC(C)(C)C(O)c1ccc(OC)c2ccccc12 (stereo not given) gave GI50 of 2.07 µM (inactive)

###

Tested on: NCI-H522
experiment.description: NCI tumour cell line growth inhibition, 48 h
Active and inactive are the calls of the source. Rule as the data show it: active = GI50 up to about 1.1 µM and inactive = higher.
Lab note: assign the record to one of true (1) for active, false (0) for inactive

Completed entries (count: 4):
Cc1cc(S(=O)(=O)n2ccnc2Oc2ccccc2)c(SSc2cc(Cl)c(C)cc2S(=O)(=O)n2ccnc2Oc2ccccc2)cc1Cl	false (0)
Cc1ccc(-c2cc(-c3ccc(Cl)cc3)nc(/N=C3\C(=O)N(CN4CCCCC4)c4ccc(Cl)cc43)n2)cc1	false (0)
COc1ccc2c(c1O)C13CCN(C)C(C2)C1CCC1(C3)OCCO1 (centres undefined)	false (0)
Cc1ccc(C2=Nc3c(N)nc(N)nc3NC(c3ccccc3)C2)cc1 (centres undefined)	false (0)

Now take the following compound into account.
# lookup: test call for Nc1nc(SCCC/C=C/I)nc2c1ncn2C1OC(CO)C(O)C1O (centres undefined)
false (0)

###

Tested on: SF-295
experiment.description: NCI tumour cell line growth inhibition, 48 h
Active and inactive are the calls of the source. No stated cut-off is given here; in the data, active = GI50 up to about 1.1 µM and inactive = higher.
Lab note: assign the record to one of active, inactive

CC12CC(C/C1=N/O)C(C)(C)C2 (stereo not given)	inactive

Now take the following molecule into account.
# lookup: test call for C=C1C(=O)OC2C1C(OC(=O)/C(C)=C\C)CC1(CO1)C1C(O)C=C(C)C21O (stereo not given)
inactive

###

System: COLO 205
experiment.description: NCI tumour cell line growth inhibition, 48 h
The source made the active and inactive calls. Cut-off read from the data, not from the text of the source: active = GI50 up to about 1.1 µM and inactive = higher.
Catalogue of GI50 readings, one per entry.

COc1ccc(/N=C2\C(=O)Nc3ccc(Br)cc32)cc1	15.7 µM (inactive)

Lab note: Clc1ccc(NCc2nnc(COc3ccc(OCc4nnc(CNc5ccc(Cl)cc5)o4)c(Cl)c3)o2)cc1 gave GI50 of 10.9 µM (inactive)

Lab note: CCOC(=O)/C(=C/c1ccc(C#N)cc1)N(CC)CC gave GI50 of > 100 µM (inactive)

Lab note: CC[S+]([O-])C(=O)N(O)c1ccc(Cl)cc1 (stereo unspecified) gave GI50 of 36 µM (inactive)

Lab note: CC(C)(C)c1ccc(O)c(C(O)c2cccnc2)c1 (stereo unspecified) gave GI50 of > 100 µM (inactive)

Lab note: COC(=O)c1c(-c2ccccc2)c2sc3ccccc3n2c1N gave GI50 of 28.2 µM (inactive)
